Where these numbers come from: patent US11446308B2

- System: hair cells in zebrafish lateral line neuromasts
- TEST DESCRIPTION: Protection against cisplatin-induced hair cell loss in zebrafish lateral lines in vivo
- TEST PARAMETERS: 5-dpf larvae, 5 μM cisplatin

# MOLECULE, Zebrafish IC50
rows = [
    ("Cc1oncc1C(=O)Nc1ccc(C(F)(F)F)cc1 [Compound 1, Leflunomide]", "No"),
    ("O=c1cc(CN2CCOCC2)occ1OCCCCCSc1ccnc2cc(C(F)(F)F)ccc12", "No"),
    ("CCCCCC[C@H]1C(=O)OC(C)C(NC(=O)c2cccc(NC=O)c2O)C(=O)O[C@@H](C)C1OC(=O)CC(C)C (stereo partly drawn) [Compound 5, Antimycin A]", "No"),
]
